# protocolDescription: Kinetic solubility
# Format: physicochemical
# runConditions: hhbs buffer, aqueous buffer, Kinetic Sol., Tables 4 and 11
reportedMetric: solubility kinetic (µM)
Write the answer as a number in µM, unit excluded.

Note to self: solubility kinetic recorded for CC(C)c1cc(Cl)cc(Cl)c1Nc1ccc(F)c(CC(=O)NCC(C)(C)O)c1 [NH91, reference compound] was 20

---

# protocolDescription: Human liver microsome metabolic stability
# Assay type: in vitro ADME
# runConditions: human, liver microsomes, human liver microsomes; read-out: HLM T1/2
reportedMetric: half-life at 1 µM (min)
Write the answer as a number in min, unit excluded.

Note to self: half-life at 1 µM recorded for O=C(Cc1ccnc(-n2cc(Cl)c3cc(Cl)cc(Cl)c32)n1)N[C@@H]1COC[C@H]1O [Compound 820] was 33.8

Note to self: half-life at 1 µM recorded for O=C(Cc1cncc(-n2cc(Cl)c3cc(Cl)cc(Cl)c32)c1)N[C@@H]1COC[C@H]1O [Compound 661] was 19.2

Note to self: half-life at 1 µM recorded for CC(C)(C)c1cn(-c2cncc(CC(=O)N[C@@H]3COC[C@H]3O)c2)c2c(Cl)cc(Cl)cc12 [Compound 800] was 15.4

Note to self: half-life at 1 µM recorded for O=C(Cc1cc(-n2cc(Cl)c3cc(Cl)cc(Cl)c32)cnn1)N[C@@H]1COC[C@H]1O [Compound 830] was 58.1
